biological target: T1, Human EphA2 (Ecto), C-terminal polyHis (Human, UniProt P29317 24-537); assay: FP competition vs Reference Compound C
T1 construct: extracellular domain; R&D systems 3035-A2 or in-house
T1 sequence (P29317 24-537): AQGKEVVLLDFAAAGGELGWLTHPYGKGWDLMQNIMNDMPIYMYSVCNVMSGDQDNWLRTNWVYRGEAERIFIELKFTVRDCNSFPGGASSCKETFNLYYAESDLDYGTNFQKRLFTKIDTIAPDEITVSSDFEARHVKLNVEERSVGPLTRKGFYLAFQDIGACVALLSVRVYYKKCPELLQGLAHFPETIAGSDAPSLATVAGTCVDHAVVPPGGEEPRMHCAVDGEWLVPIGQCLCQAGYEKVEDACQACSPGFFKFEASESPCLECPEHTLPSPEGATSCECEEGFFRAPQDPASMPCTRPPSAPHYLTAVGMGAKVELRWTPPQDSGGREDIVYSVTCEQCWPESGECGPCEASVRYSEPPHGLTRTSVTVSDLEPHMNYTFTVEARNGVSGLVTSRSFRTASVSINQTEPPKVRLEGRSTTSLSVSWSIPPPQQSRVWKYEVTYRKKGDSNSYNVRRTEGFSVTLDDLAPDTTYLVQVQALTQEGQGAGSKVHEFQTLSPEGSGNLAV
*1 amine or outer side, *2 acyl side, *3 side chain or, on linkers, in order; H or OH if unused. Bridges are numbered along the chain shown (N, C = ends). Where no end group is shown, it is not given here. TATA = O=C(CC[*:1])N1CN(C(=O)CC[*:2])CN(C(=O)CC[*:3])C1
Task for the reader: assign each of the following binders its reported pKi.
For clarity, pKi is expressed as the negative log10 of concentration in mol/L.

input: Supply pKi value. Item: ACGFMGLEPCELFCA (linker 2-10-14 via TATA; not fully specified (C-terminus)) [Compound 46]
output: 7.09

input: Supply pKi value. Item: ACPLVNPLCMMGGWKCA (linker 2-9-16 via TATA; not fully specified (C-terminus)) [Compound 62]
output: 7.17

input: Supply pKi value. Item: ACGFMGLVPCNVFCA (linker 2-10-14 via TATA; not fully specified (C-terminus)) [Compound 45]
output: 6.85
